Record form. Attribute: bioavailability. Fill in for each entry.
# ASSAY_PROTOCOL: Oral bioavailability
# Type: ADME, organism-based
# ASSAY_SETUP: rat, in vivo

Some molecules with known bioavailability results, for comparison:
Give a short answer stating reported bioavailability for `N=C(N)[C@H]1CC[C@H](CNC(=O)[C@@H]2CC[C@H]3CN(S(=O)(=O)C(c4ccccc4)c4ccccc4)CC(=O)N32)CC1` .
0.1%

Give a short answer stating reported bioavailability for `N/C(=N/O)N1CCC(CNC(=O)[C@@H]2CC[C@H]3CN(S(=O)(=O)CCc4ccccc4)CC(=O)N32)CC1` .
2.7%

Give a short answer stating reported bioavailability for `N=C(N)c1ccc(CNC(=O)[C@@H]2CC[C@H]3CN(S(=O)(=O)Cc4ccccc4)CC(=O)N32)cc1` .
~0.5%

Give a short answer stating reported bioavailability for `N=C(N)N1CCC(CNC(=O)[C@@H]2CC[C@H]3CN(S(=O)(=O)CC(c4ccccc4)c4ccccc4)CC(=O)N32)CC1` .
2.2%

Give a short answer stating reported bioavailability for `N/C(=N\O)N1CCC(CNC(=O)[C@@H]2CC[C@H]3CN(S(=O)(=O)Cc4ccccc4)CC(=O)N32)CC1` .
~0.5%

Give a short answer stating reported bioavailability for `N/C(=N/O)N1CCC(CNC(=O)[C@@H]2CC[C@H]3CN(S(=O)(=O)CC(c4ccccc4)c4ccccc4)CC(=O)N32)CC1` .
0.7%

Consider the additional molecule presented here.
Give a short answer stating reported bioavailability for `N/C(=N/O)N1CCC(CNC(=O)[C@@H]2CC[C@H]3CN(S(=O)(=O)C(c4ccccc4)c4ccccc4)CC(=O)N32)CC1` .
1.9%
